# assay_protocol: wn = mass fraction of the nth substance listed
# condition_details: 313.15 K; 101 kPa; Liquid; Concentric cylinders viscometry; w1 = 0.05
Consider the following compounds; for each one, report its viscosity.
Give bare numbers, in mPa·s.

Some entries whose results are on file:
Query: Entry under review: CC(O)CNCC(C)O (centres undefined) [N-(2-hydroxypropyl)-2-hydroxy-1-propanamine] + O . Reported viscosity?
Result: 0.8189

Query: Field entry: CC(O)CN (centres undefined) [1-amino-2-propanol] + O
Result: 0.7937

Query: Another compound to check: CC(O)CN(CC(C)O)CC(C)O (centres undefined) [triisopropanolamine] + O
Result: 0.8034

Query compound follows.
Query: Requested read-out: viscosity. Entry: OCCNCCO [diethanolamine] + O
Result: 0.7792
